Attribution: patent US20170165337A1

peptide exchange yield reference
STUDY TARGET: T1, HLA-A*02:01 (human)
T1 construct: MHC class I monomer of the UV-ligand exchange assay; also called peptide-receptive MHC molecules; MHC class I
ASSAY EXPLANATION: UV peptide-exchange ELISA

| BINDER | PROPERTY MEASURED | REPORTED |
| --- | --- | --- |
| LVYEAIIMV | peptide exchange yield | 50 to 75% |
| KLILLDTPLFL | peptide exchange yield | 50 to 75% |
| FLDEDDMSL | peptide exchange yield | 20 to 50% |
| TVIENIHTI | peptide exchange yield | 20 to 50% |
| RLLDEQFAVL | peptide exchange yield | 50 to 75% |

Query: peptide exchange yield; subject: `ILEENIPVL`
50 to 75%
